Below, each entry is listed alongside its reported AD38 Viability Normalized Result (cmpd/DMSO %) at 10 μM.
tested on: AD38 cells; assay: Viability of AD38 cells (Promega CellTiter-Glo); type: cell-based; conditions: 10 μM compound, 6 days, CellTiter-Glo luminescence normalized to DMSO control (100%)
Please reply with the bare figure in % and do not write the unit itself.

Worked examples, 2 compounds total:
Lookup: Requested read-out: AD38 Viability Normalized Result (cmpd/DMSO %) at 10 μM. Entry: O=C(NCc1cnc(-c2nccs2)s1)c1ccc2c(c1)NC(=O)c1ccccc1O2
Found: 91

Lookup: What about CS(=O)(=O)Nc1ccc(-c2ncc(CNC(=O)c3ccc4c(c3)NC(=O)c3ccccc3S4(=O)=O)s2)cc1 ?
Found: 107

Further cases:
Lookup: What value of AD38 Viability Normalized Result (cmpd/DMSO %) at 10 μM has been recorded for this entry: CCN(CC)CCCOc1ccc(-c2ncc(CNC(=O)c3ccc4c(c3)NC(=O)c3ccccc3O4)s2)cc1.Cl
Found: 104

Lookup: Request: N#Cc1ccc(-c2ncc(CNC(=O)c3cc4c(cc3O)S(=O)(=O)c3ccccc3C(=O)N4)s2)cc1
Found: 108

Lookup: Here is the next compound: Nc1ncc(CNC(=O)c2ccc3c(c2)NC(=O)c2ccccc2S3(=O)=O)s1
Found: 97

Lookup: And the next one, CC1(C)CCN(c2ncc(CNC(=O)c3ccc4c(c3)NC(=O)c3ccccc3S4(=O)=O)s2)C1 ?
Found: 105

Lookup: Repeat for the following compound: O=C(O)CNc1ncc(CNC(=O)c2ccc3c(c2)NC(=O)c2ccccc2S3)s1
Found: 97

Lookup: What about this compound? CC(C)N(C)CC(O)COc1ccc(-c2ncc(CNC(=O)c3ccc4c(c3)NC(=O)c3ccccc3S4(=O)=O)s2)cc1 (stereo not drawn)
Found: 103

Lookup: Please do the same for O=C(O)CSc1ncc(CNC(=O)c2ccc3c(c2)NC(=O)c2ccccc2S3)s1 as well.
Found: 108

Lookup: Follow-up item: O=C(NCc1cnc(-c2ccc(OCCC[N+]34CCC(CC3)CC4)cc2)s1)c1ccc2c(c1)NC(=O)c1ccccc1S2(=O)=O.[Br-]
Found: 95

Lookup: Next record, please: Cc1c(C(=O)NCc2cnc(-n3cccn3)s2)ccc2c1NC(=O)c1ccccc1S2(=O)=O [C38-02]
Found: 94

* * *

Reported AD38 Viability Normalized Result (cmpd/DMSO %) at 10 μM by item:
test system: AD38 cells; assay: Viability of AD38 cells (Promega CellTiter-Glo); type: cell-based; conditions: 10 μM compound, 6 days, CellTiter-Glo luminescence normalized to DMSO control (100%)

Check out these entries, answers already filled in.
Lookup: Give AD38 cells AD38 Viability Normalized Result (cmpd/DMSO %) at 10 μM for O=C(NCc1cnc(-c2ccc(CCCCN3CCOCC3)cc2)s1)c1ccc2c(c1)NC(=O)c1ccccc1S2(=O)=O [compound 11056]
Found: 96%

Lookup: Also check Cc1ncc(CNC(=O)c2ccc3c(c2C)NC(=O)c2ccccc2S3)s1 [compound 1535]
Found: 84%

Others:
Lookup: Which AD38 Viability Normalized Result (cmpd/DMSO %) at 10 μM is reported with AD38 cells for this entry: O=C(NCc1cnc(-n2ccc(F)n2)s1)c1ccc2c(c1)NC(=O)c1ccccc1S2(=O)=O [compound 11045] ?
Found: 94%

Lookup: What do you have for CCCN1c2ccc(C(=O)NCc3cnc(C(F)(F)F)s3)cc2NC(=O)c2ccccc21 [compound 1916] ?
Found: 103%

Lookup: Same again, this time with Cl.O=C(NCc1cnc(-c2ccc(O[C@@H]3CCNC3)cc2)s1)c1ccc2c(c1)NC(=O)c1ccccc1S2(=O)=O [compound 11103]
Found: 102%

Lookup: Queued: COc1ccc(-c2ncc(CNC(=O)c3ccc4c(c3)NC(=O)c3ccccc3S4(=O)=O)s2)cc1C [1804-A]
Found: 90%

Lookup: Try this molecule next: CN(C)C1CCN(c2ncc(CNC(=O)c3ccc4c(c3)NC(=O)c3ccccc3S4(=O)=O)s2)CC1 [compound 1636]
Found: 95%

// provenance: patent US11814376B2
